assay: Cytotoxicity against human HeLa cells expressing YFP parkin in presence of FCCP/oligomycin at 25 uM assessed as maximum cell death by DAPI staining analysis relative to control; format: toxicity, cell-based
Readout: Emax at 25 µM (%)

In [3]: df
Out[3]:
                        structure_as_smiles        readout  unit_spec  obs_value
0  COC1CN([C@@H]2COc3ccccc3[C@H]2Nc2ncnc3[nH]c(C4CC4)cc23)C1  Emax at 25 µM          %       22.5

###

MNTC for assorted compounds
experiment: Cytotoxicity against human HeLa cells expressing YFP parkin treated with FCCP/ oligomycin assessed as highest safety dose by DAPI staining analysis; format: toxicity, cell-based; conditions: read-out: Activity
Readout: MNTC (µM)

                                   compound  obs_value
0  C[C@@H]1CN([C@H]2COc3ccccc3[C@@H]2Nc2ncnc3[nH]c(C4CC4)cc23)C[C@H](C)O1 (single isomer, unassigned)        2.3
1  FC(F)(F)c1cc2c(NC3c4ccccc4OCC3N3C[C@@H]4COC[C@H]4C3)ncnc2[nH]1 (stereo not given in full)         25
2  COC1CN([C@H]2COc3ccccc3[C@@H]2Nc2ncnc3[nH]c(C4CC4)cc23)C1         25
3  CO[C@@H]1CCN([C@H]2COc3ccccc3[C@@H]2Nc2ncnc3[nH]c(C(F)(F)F)cc23)C1        3.4
4  COC1CN([C@H]2CCc3ccccc3[C@@H]2Nc2ncnc3[nH]c(C(F)(F)F)cc23)C1        8.3
5  c1ccc2c(c1)OC[C@H](C1CCOCC1)[C@H]2Nc1ncnc2[nH]c(C3CC3)cc12 (single isomer, unassigned)       21.5
6  FC(F)(F)c1cc2c(N[C@H]3c4ccccc4OC[C@H]3C3CCCOC3)ncnc2[nH]1 (mixture of isomers)         25
7  Fc1ccc2c(c1)OC[C@@H](N1C[C@H]3COC[C@H]3C1)[C@@H]2Nc1ncnc2[nH]c(C3CC3)cc12         16
8  FC(F)(F)c1cc2c(N[C@H]3c4ccccc4CC[C@@H]3N3C[C@H]4COC[C@H]4C3)ncnc2[nH]1 (single isomer, unassigned)        2.8
9  C[C@@H]1CN([C@H]2CCc3ccccc3[C@@H]2Nc2ncnc3[nH]c(C(F)(F)F)cc23)CCO1 (single isomer, unassigned)        3.7
